Data origin, for the record: patent US20090233948A1

# system under test: human PNP (Homo sapiens, UniProt P00491)
# Sequence (P00491 1-289): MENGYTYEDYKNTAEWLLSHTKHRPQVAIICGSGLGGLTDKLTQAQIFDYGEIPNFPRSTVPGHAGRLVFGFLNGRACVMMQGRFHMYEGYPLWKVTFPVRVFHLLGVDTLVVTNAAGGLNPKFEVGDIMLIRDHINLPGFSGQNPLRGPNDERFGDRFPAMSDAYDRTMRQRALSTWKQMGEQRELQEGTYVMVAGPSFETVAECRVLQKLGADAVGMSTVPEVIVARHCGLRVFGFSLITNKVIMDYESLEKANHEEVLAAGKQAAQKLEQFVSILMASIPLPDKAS
# test name: Inhibition of human PNP: phosphorolysis of inosine, xanthine oxidase coupled spectrophotometric assay (slow-onset tight-binding analysis)
# Format: biochemical
# assay context: huPNP 1.4 nM, 1 mM inosine, 50 mM KHPO4 pH 7.4, 25° C.; initial inhibitor binding step; read-out: Initial dissociation constant (Ki)
readout kind: pKi
// pKi is dimensionless: -log10 of concentration (M)

Quick one: pKi of O=c1[nH]cnc2c(CCN3C[C@@H](CO)[C@H](O)C3)c[nH]c12 [Compound 1] ?
8.80
